Assay: Acute toxicity
Type: in vivo
Conditions: mouse, in vivo, ip; (LD50)/(ED50 of Muscle relaxant effect), i.p., mice; read-out: Safety index
Measured selectivity ratio of individual entries
ENDPOINT: selectivity ratio

1. CCOc1ccc(C(=O)C(C)CN2CCCC2)c(C)c1C (stereo not shown) ... 1.78
2. Cc1ccc(C(=O)C(C)CN2CCCCC2)cc1C (stereo not shown) ... 2.36
3. COc1ccc(C(=O)C(C)CN2CCCC2)c(C)c1C (stereo not shown) ... 2.35
4. COc1ccc(C(=O)CCN2CCCC2)c(C)c1C ... 2

----------
Measured selectivity ratio values are reported for all entries that follow.
Test: Acute toxicity
Format: in vivo
Settings: mouse, in vivo, ip; (LD50)/(ED50 of Muscle relaxant effect), i.p., mice; read-out: Safety index
ENDPOINT: selectivity ratio

1) COc1ccc(C(=O)C(C)CN2CCCCC2)c(C)c1C (centres unmarked) ... 1.87
2) Cc1ccc(C(=O)C(C)CN2CCCCC2)cc1 (centres unmarked) ... 1.34
3) COc1ccc(C(=O)C(C)CN2CCCCC2)cc1OC (centres unmarked) ... 1.56
4) CCc1ccc(C(=O)C(C)CN2CCCCC2)cc1 (centres unmarked) ... 2.01
5) Cc1cc(C)c(C(=O)C(C)CN2CCCCC2)c(C)c1 (centres unmarked) ... 1.27

Origin of measurements: patent US4528299A
